Property: TGI; scope: individual compounds
Tested on: SNB-75 CNS
method summary: NCI tumour cell line growth inhibition, 48 h
Numbers only here, please. The scale is µM.

cpd smiles: COC(=O)CCC1=C(C)C(C)=N/C1=C\c1[nH]c(-c2ccc[nH]2)cc1OC
units of measure: µM
TGI: 3.62

IN: Please give the documented TGI of "Brc1cccc(Nc2ncnc3sc4c(c23)CCC2(C4)OCCO2)c1"
OUT: 80.9

IN: Please give the documented TGI of "O=C(O)c1c[nH]c2cc(OCc3ccccc3)ccc2c1=O"
OUT: 31.4

====

System: NCI-H460 lung
method summary: NCI tumour cell line growth inhibition, 48 h
Below, each entry is listed alongside its reported log10 TGI.
Heads up, the numbers here are log10 of TGI in µM units.

Example molecules with recorded log10 TGI:
molecule: S=c1[nH]nc(C23CC4CC(CC(C4)C2)C3)n1-c1ccc(Cl)cc1
log10 TGI: 1.75
--
molecule: O=c1ccc2[n+]([O-])c3ccc(O)cc3oc-2c1
log10 TGI: 1.59
--
molecule: CN(C)C(=S)/N=c1\ss/c(=N\C(=S)N(C)C)n1C1CCCCC1
log10 TGI: 1.19
--
molecule: Cn1c2c(c3ccccc31)CCN(CCCN1CCN(c3cccc(Cl)c3)CC1)C2=O
log10 TGI: 1.48
--
molecule: Cc1ccc2cc3cccc(C(=O)NCCN(C)C)c3nc2c1
log10 TGI: 0.29

IN: Indicate the recorded log10 TGI value for this molecule: "COc1cccc(C=O)c1[O-].COc1cccc(C=O)c1[O-].[Cu+2]"
OUT: 1.87

IN: Give the reported log10 TGI for this molecule. CCNC(=O)OCC1C2=C(C(=O)C(C)=C(N)C2=O)N2CC3C(N3C)C12OC (stereo not given)
OUT: 1.08

IN: Provide measured log10 TGI value, entry: "C/C(=N\NC(=S)N1CCN(c2ccccn2)CC1)c1cccc(C)n1"
OUT: 1.08

====

We begin with a simple list: items and their reported GI50.
Test system: NCI-H23 lung
method summary: NCI tumour cell line growth inhibition, 48 h

Recorded results for 5 compounds are shown here.
compound: Cc1ccc(/C(=C/C=C(/C#N)C(N)=O)Sc2ncnn2C)cc1
reported value: 4160 nM
//
compound: COc1ccc2[nH]c(=O)c(/C=C/C(=O)c3ccccc3OC)cc2c1
reported value: 1330 nM
//
compound: Nc1c(C(=O)c2cccc(-c3ccncc3)c2)cnn1-c1ccc(F)cc1
reported value: > 25000 nM
//
compound: CN1CCN(Cc2ccc(NC(=O)c3cncc(C#Cc4cnc5ccc(Cl)nn45)c3)cc2C(F)(F)F)CC1
reported value: 751 nM
//
compound: CNC[C@@H](NC(=O)c1ccc(-c2nc([C@H]3CC[C@H](O)[C@@H](F)C3)cnc2N)cc1F)c1cc(F)cc(Br)c1
reported value: 17800 nM

IN: Indicate its recorded GI50; the compound in question is "N=C(N)c1ccc(-c2ccc(-c3ccc(F)cc3)s2)nc1"
OUT: 2870 nM

====

Tested on: SF-295 CNS
method summary: NCI tumour cell line growth inhibition, 48 h
Decide using TGI: a value greater than or equal to 40 µM is 1, a smaller one is -1.

Worked set:
compound: Oc1ccc(Cl)cc1-c1cc(-c2ccc(Cl)cc2)n[nH]1
system tested: SF-295 CNS
classification: -1
//
compound: Cc1ccc(/C(=C/C=C(/C#N)C(N)=O)Sc2ncnn2C)cc1
system tested: SF-295 CNS
classification: 1
//
compound: COC(=O)[C@]12CC[C@@H](C(=O)/C=C/c3cccnc3)[C@@H]1[C@H]1CC[C@@H]3[C@@]4(C)C/C(=C/c5cccnc5)C(=O)C(C)(C)[C@@H]4CC[C@@]3(C)[C@]1(C)CC2
system tested: SF-295 CNS
classification: -1
//
compound: CN(C)CCNC(=O)c1cccc(NC(=O)c2ccccc2)c1[N+](=O)[O-]
system tested: SF-295 CNS
classification: 1
//
compound: S=C1Cc2cc3ccccc3nc2-c2ccccc2N1
system tested: SF-295 CNS
classification: 1
//
compound: CCN1C2=C(SC(=S)C1=C1SC(C(=O)OC)=C(C(=O)OC)S1)SC(=Nc1ccc(OC)cc1)C2=O
system tested: SF-295 CNS
classification: -1

IN: Does the compound "Cc1cc(C)c(-n2c(-c3ccccc3)cs/c2=N\N=C2C=C(C(C)(C)C)C(=O)C(C(C)(C)C)=C2)c(C)c1" have recorded TGI that is 40 µM or more?
OUT: 1

IN: Hi, just wondering whether Cc1ccccc1N1C(N)=C(C#N)C(C#N)(C#N)C1c1ccccc1 (stereo not given) shows TGI of 40 µM or higher.
OUT: 1

IN: # check: TGI of "COc1ccc2[nH]c(Cl)c(/C=C3/C(=O)N(c4ccccc4)c4ccccc43)c2c1" is greater than or equal to 40 µM
OUT: -1

IN: Does O=C1CC2C=CC1C2CO (stereo not given) have a reported TGI of at least 40 µM?
OUT: 1

IN: Threshold query (TGI >= 40 µM) on "N#CCCN(CCC#N)c1ccc(/C=C2\N=C(c3cc([N+](=O)[O-])ccc3Cl)N(S(=O)(=O)c3ccccc3)C2=O)cc1"
OUT: 1

IN: Determine whether this compound has TGI no lower than 40 µM: "O=C(Cc1ccc(OCc2ccccc2)cc1)NCc1ccc2c(c1)OCO2"
OUT: 1

IN: Determine whether measured TGI meets or exceeds 40 µM for CC(=O)O[C@H]1[C@@H]2OC(=O)C3(CC3)C2C[C@H]2O[C@]2(C)CC/C=C(\C)CCC[C@@H]1C (stereo not given in full)
OUT: 1

====

Tested on: UACC-62 melanoma
method summary: NCI tumour cell line growth inhibition, 48 h
In this section we review reported TGI values for a set of compounds.

IN: Dear colleague, please send me the reported TGI for "O=C1C(=C2SC(c3ccccc3)(c3ccccc3)c3ccccc32)C(=O)c2ccccc21" when you can.
OUT: > 100 µM

====

System: HCC-2998 colon
method summary: NCI tumour cell line growth inhibition, 48 h; in the data active means GI50 below about 0.43 µM; inactive means the rest
The categories you may choose from are 1 (yes) (active), 0 (no) (inactive)

Solved entries:
molecule: CNCCC/C=C1\c2cc3c(cc2-c2c1c1cc(OC)c(OC)cc1c(=O)n2C)OCO3
classification: 1 (yes)
--
molecule: C/C(=N\NC(=O)c1ccccc1N)c1ccccc1O
classification: 0 (no)
--
molecule: CCOC(=O)C#Cc1c(C(=O)OCC)nnn1Cc1ccc(C(F)(F)F)cc1
classification: 0 (no)
--
molecule: c1ccc(-c2nc([P+](c3ccccc3)(c3ccccc3)c3ccccc3)c(N3CCOCC3)o2)cc1
classification: 0 (no)
--
molecule: O=c1[nH]c2c3ccncc3cc(-c3cccc(Cl)c3)c2c2cnccc12
classification: 0 (no)

IN: Hello, I am checking results. What call was entered for "Oc1cc(Cn2cnc3c(Cl)nc(Cl)nc32)ccc1C12CC3CC(CC(C3)C1)C2" ?
OUT: 0 (no)

IN: Returns: the outcome recorded for "CN(C)c1ccc(N=Nc2ccc(Br)cn2)c(O)c1" in this assay.
OUT: 0 (no)

IN: Hi, do you know how "COC(=O)CCC1=C(C)C(C)=N/C1=C\c1[nH]c(-c2ccc[nH]2)cc1OC" came out in this test?
OUT: 0 (no)

IN: Any idea what this test logged for "C=C(C)[C@@H]1CC[C@]2(C)[C@H](CC[C@@H]3[C@@H]([C@@](C)(O)CCC=C(C)C)CC[C@]32C)[C@@]1(C)CCC(=O)N1CCN(C)CC1" ?
OUT: 0 (no)

IN: Any idea what this test logged for COC(=O)C12OCC34C(CC5C(C)=C(O)C(=O)CC5(C)C3C(O)C1O)OC(=O)C(OC(=O)C=C(C)C)C24 (configuration not stated) ?
OUT: 1 (yes)

IN: Query: recorded result category for "N=C(N)c1ccc(-c2ccc(-c3cccs3)o2)cc1" in this test
OUT: 0 (no)

IN: Test call for this molecule, please: "CCN1CCN(Cc2ccc(NC(=O)c3nc4ccc5[nH]ncc5c4c4c3CCCC4)cc2C(F)(F)F)CC1"
OUT: 0 (no)

====

System: NCI-H226 lung
method summary: NCI tumour cell line growth inhibition, 48 h; in the data active means GI50 below about 0.43 µM; inactive means the rest
Tick one outcome: active, inactive

IN: // return assay outcome for "COC(=O)CCC1=C(C)C(C)=N/C1=C\c1[nH]c(-c2ccc[nH]2)cc1OC"
OUT: active

IN: Hi team, can someone confirm the assay call for "O=C(Cc1ccc(OCc2ccccc2)cc1)NCc1ccc2c(c1)OCO2" ?
OUT: inactive

IN: Please share the test call associated with "COC(=O)[C@]12CC[C@@H](C(=O)/C=C/c3cccnc3)[C@@H]1[C@H]1CC[C@@H]3[C@@]4(C)C/C(=C/c5cccnc5)C(=O)C(C)(C)[C@@H]4CC[C@@]3(C)[C@]1(C)CC2" .
OUT: active

IN: Write down the call the test reported for this compound. Item: "COc1ccc2[nH]c(=O)c(/C=C/C(=O)c3ccccc3OC)cc2c1"
OUT: inactive

IN: Hello, I am checking results. What call was entered for "CS(=O)(=O)OCCn1c2c(c3c(O)cccc31)C(=O)c1ccccc1-2" ?
OUT: inactive

IN: Answer briefly: the call reported for "Nc1cc2ccccc2c(O)c1O" in this assay.
OUT: inactive

IN: I'd appreciate the recorded outcome for "Clc1ccc(-c2nc(-c3ccccc3)cn3ccnc23)cc1" from this test.
OUT: inactive

IN: Short answer needed: outcome of this test for "c1ccc(-c2cccc(-c3ccccn3)n2)nc1" ?
OUT: active

IN: What call does the record list for CC(=O)O[C@H]1[C@@H]2OC(=O)C3(CC3)C2C[C@H]2O[C@]2(C)CC/C=C(\C)CCC[C@@H]1C (some centres not stated) ?
OUT: inactive

IN: Kindly provide the recorded test outcome for the following compound: "COc1ccc2c(c1)C(=O)c1c-2c(=O)n(CCCCCCC(=O)NO)c2ccccc12"
OUT: inactive

IN: What classification did "C/C(=N\NC(=O)c1ccccc1N)c1ccccc1O" end up with in this test?
OUT: inactive

IN: // param item: Cc1cc(-c2ccc(C3C(C#N)=C(N)Oc4c3c(=O)oc3ccccc43)cc2)cnc1F (configuration not stated) ; yields the recorded call
OUT: inactive

IN: Tell me the assay call for COC(=O)C12OCC34C(CC5C(C)=C(O)C(=O)CC5(C)C3C(O)C1O)OC(=O)C(OC(=O)C=C(C)C)C24 (configuration not stated) please.
OUT: active

IN: Please indicate how the test categorized "O=C(c1cccs1)c1c(C(F)(F)F)n([O-])c2ccc(Cl)cc2[n+]1=O" .
OUT: active

IN: For this compound, state the assay outcome: "Oc1cc(Cn2cnc3c(Cl)nc(Cl)nc32)ccc1C12CC3CC(CC(C3)C1)C2"
OUT: inactive

IN: Test call, this compound: "CN1CCN(Cc2ccc(NC(=O)c3cncc(C#Cc4cnc5ccc(Cl)nn45)c3)cc2C(F)(F)F)CC1"
OUT: inactive

IN: // outcome(item) with item = C/C=C/C[C@@H](C)C(=O)C1C(=O)N[C@@H](C(C)C)C(=O)N(C)CC(=O)N(C)[C@@H](CC(C)C)C(=O)N[C@@H](C(C)C)C(=O)N(C)[C@@H](CC(C)C)C(=O)N[C@@H](C)C(=O)N[C@@H](C)C(=O)N(C)[C@@H](CC(C)C)C(=O)N(C)[C@@H](CC(C)C)C(=O)N(C)[C@@H](C(C)C)C(=O)N1C (some centres not stated)
OUT: inactive
